Parameter: koff. Scope: all listed entries.
Biological target: T1, human IL-36γ, truncated (human, UniProt Q9NZH8 18-169)
T1 construct: Bought from R&D Systems (cat 6835-IL); also called human IL-36 gamma; hIL-36gamma
T1 sequence: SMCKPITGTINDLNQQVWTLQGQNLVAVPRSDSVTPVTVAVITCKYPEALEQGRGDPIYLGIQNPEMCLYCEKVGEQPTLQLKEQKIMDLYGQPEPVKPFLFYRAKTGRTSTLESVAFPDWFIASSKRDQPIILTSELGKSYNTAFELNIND
Assay: SPR, Biacore, 1:1 Langmuir fit; heads of c3 and c4 printed swapped
Form entry: value (s⁻¹) — number only.

BINDER	VAL
144L249B LV9 HV10b (antibody, V domains shown, Humanized) VH: QVQLVQSGAEVKKPGASVKVSCKASGFNIKDTYIYWVRQAPGQGLEWIGRIDPAIGTTRYDPKFQGKATLTTDTSTSTAYLELSSLRSEDTAVYYCARYDYSGSSFYFDYWGQGTLVTVSS VL: QAVVTQEPSLTVSPGGTVTLTCRSSTGAVTTSNYANWVQEKPGQLFTGLIGGTNDRAPGVPARFSGSLLGGKAALTLSGAQPEDEADYFCALWYSNHLVFGGGTKLTVL	0.000728
144D464A (antibody, V domains shown, Mouse monoclonal from hybridoma; mouse IgG heavy and lambda light chain; also called mouse antibody 144D464A) VH: EVQLQQSGAELVKPGASVRLSCTASGFNIKDTYIHWVKQRPEQGLEWIGRIDPAIGTTRYDPKFQGKATITTDTSSDTVHLQFSSLTSEDTAVYYCARLHYFGNNFFFDYWGQGTTLTVSS VL: QAVVTQESALTTSPGEAVTLTCRSSSGAVTTSNYANWVQEKPDHLFAGLIGGTNDRAPGVPARFSGSLIGDKAALTITGAQTEDEAIYFCALWFSNHWVFGGGTKLTVL	0.00034
144L249B LV9 HV11 (antibody, V domains shown, Humanized) VH: QVQLVQSGAEVKKPGASVKVSCKASGFNIKDTYIYWVRQAPGQGLEWIGRIDPAIGTTRYDPKFQGKATLTTDTSTNTAYLELSSLRSEDTAVYYCARYDYSGSSFYFDYWGQGTLVTVSS VL: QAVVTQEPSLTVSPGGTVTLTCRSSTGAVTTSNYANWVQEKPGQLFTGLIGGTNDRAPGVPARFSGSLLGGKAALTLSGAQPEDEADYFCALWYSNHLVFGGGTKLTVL	0.000706
144D464A LV7a HV10b (antibody, V domains shown, Humanized; also called humanized 144D464A antibody LV7a HV10b) VH: QVQLVQSGAEVKKPGASVKVSCKASGFNIKDTYIHWVRQAPGQGLEWIGRIDPAIGTTRYDPKFQGRATITTDTSTSTVYLEFSSLRSEDTAVYYCARLHYFGNNFFFDYWGQGTLVTVSS VL: QAVVTQEPSLTVSPGGTVTLTCRSSSGAVTTSNYANWVQQKPGQAFAGLIGGTNDRAPGVPARFSGSLLGGKAALTISGAQPEDEADYFCALWFSNHWVFGGGTKLTVL	0.000451
144D464A LV11re HV10b (antibody, V domains shown, Humanized) VH: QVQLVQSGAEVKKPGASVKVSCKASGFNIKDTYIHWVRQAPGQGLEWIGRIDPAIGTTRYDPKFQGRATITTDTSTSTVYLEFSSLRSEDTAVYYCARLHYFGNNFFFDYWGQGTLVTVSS VL: QAVVTQEPSLTVSPGGTVTLTCRSSSGAVTTSNYANWVQEKPGQLFAGLIGGTNDRAPGVPARFSGSLLGGKAALTISGAQPEDEAIYFCALWFSNHWVFGGGTKLTVL	0.00042
144D464A LV9are HV10b (antibody, V domains shown, Humanized) VH: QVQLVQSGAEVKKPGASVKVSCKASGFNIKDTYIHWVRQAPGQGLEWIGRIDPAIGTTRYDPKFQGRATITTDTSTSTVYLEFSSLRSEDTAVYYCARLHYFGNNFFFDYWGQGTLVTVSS VL: QAVVTQEPSLTVSPGGTVTLTCRSSSGAVTTSNYANWVQEKPGQLFAGLIGGTNDRAPGVPARFSGSLLGGKAALTLSGAQPEDEADYFCALWFSNHWVFGGGTKLTVL	0.000436

# next binder below
query: Return reported koff; argument: 144D464A LV10re HV10b (antibody, V domains shown, Humanized) VH: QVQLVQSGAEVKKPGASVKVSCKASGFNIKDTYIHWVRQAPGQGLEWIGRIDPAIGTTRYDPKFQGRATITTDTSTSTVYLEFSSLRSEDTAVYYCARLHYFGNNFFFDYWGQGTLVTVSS VL: QAVVTQEPSLTVSPGGTVTLTCRSSSGAVTTSNYANWVQEKPGQLFAGLIGGTNDRAPGVPARFSGSLLGGKAALTLSGAQPEDEAIYFCALWFSNHWVFGGGTKLTVL
result: 0.000425
